biological target: HLA A3002 (human); assay: 125I-probe competition, purified HLA
pIC50: −log10 of the molar value.

binder | pIC50
LSQMVQWAY (modifications not checked) [HPV16/31.E1.357] | 9.03
AFTDLTIVY (modifications not checked) [HPV31.E6.46] | 7.15
PYLHSRLVVF (modifications not checked) [HPV31.E1.557] | 5.65
MYVCCHVPL (modifications not checked) [HPV18.E5.14] | 5.33
GTGCNGWFY (modifications not checked) [HPV18/31.E1.11] | 8.04
VVFIYIPLF (modifications not checked) [HPV31.E5.64] | 6.57
LQDKILDHY (modifications not checked) [HPV45.E2.17] | 6.08
SYFGMSFIHF (modifications not checked) [HPV18/45.E1.491] | 5.81
